- Experiment Notes: Biodistribution of radiotracers in normal mice
- Type: in vivo, mouse
- Stated Conditions: normal male mice, 60 min
Respond with rule met for Biodistribution: Muscle values of 0.3 % dose/g and above, rule not met for values below.

O=C(O)CCc1ccc2c(c1)C[N+]13CC[N+]45CC(=O)[O][68Ga-3]14([O]C(=O)C3)([O]2)[O]c1ccc(CCC(=O)NCC(=O)N[C@@H](Cc2ccc(OCC(=O)N[C@@H](Cc3ccccc3)C(=O)NCCCC[C@H](NC(=O)N[C@@H](CCC(=O)O)C(=O)O)C(=O)O)cc2)C(=O)O)cc1C5 (some centres unmarked) [[^68Ga]5b] | rule met
O=C(O)CC[C@H](NC(=O)CCc1ccc2c(c1)C[N+]13CC[N+]45CC(=O)[O][68Ga-3]41([O]C(=O)C3)([O]c1ccc(CCC(=O)NCCCCCC(=O)NCCCC[C@H](NC(=O)N[C@@H](CCC(=O)O)C(=O)O)C(=O)O)cc1C5)[O]2)C(=O)O (some centres unmarked) [[^68Ga]1f] | rule met
O=C(O)CC[C@H](NC(=O)N[C@@H](CCCCNC(=O)CCCCCNC(=O)CCc1ccc2c(c1)C[N+]13CC[N+]45CC(=O)[O][68Ga-3]14([O]C(=O)C3)([O]2)[O]c1ccc(CCC(=O)N[C@@H](CC(=O)O)C(=O)O)cc1C5)C(=O)O)C(=O)O (some centres unmarked) [[^68Ga]1e] | rule met
O=C(O)CC[C@H](NC(=O)N[C@@H](CCCCNC(=O)CCCCCNC(=O)CCc1ccc2c(n1)C[N+]13CC[N+]45CC(=O)[O][68Ga-3]14([O]C(=O)C3)([O]2)[O]c1ccc(CCC(=O)NCCCCCC(=O)NCCCC[C@H](NC(=O)N[C@@H](CCC(=O)O)C(=O)O)C(=O)O)nc1C5)C(=O)O)C(=O)O (some centres unmarked) [[^68Ga]3] | rule met

Kindly review the next compound as well.
[ask] Decide: is the reported value of Biodistribution: Muscle for O=C(O)CCc1ccc(O)c(CN(CCN(CC(=O)O)Cc2cc(CCC(=O)NCCCCCC(=O)NCCCC[C@H](NC(=O)N[C@@H](CCC(=O)O)C(=O)O)C(=O)O)ccc2O)CC(=O)O)n1 [[^68Ga]4a, metal not drawn] equal to or greater than 0.3 % dose/g?
[reply] rule met

---

- Experiment Notes: Biodistribution of radiotracers in normal mice
- Assay type: in vivo, mouse
- Stated Conditions: normal male mice, 2 min
Measured Biodistribution: Skin, listed per entry for reference.
Please reply with the bare figure in % dose/g and do not write the unit itself.

C[C@H](NC(=O)CCc1ccc2c(c1)C[N+]13CC[N+]45CC(=O)[O][68Ga-3]41([O]C(=O)C3)([O]c1ccc(CCC(=O)NCCCCCC(=O)NCCCC[C@H](NC(=O)N[C@@H](CCC(=O)O)C(=O)O)C(=O)O)cc1C5)[O]2)C(=O)O (some centres unmarked) [[^68Ga]1d] | 2.30

Okay, next one:
[ask] For the molecule O=C(O)CC[C@H](NC(=O)CCc1ccc2c(c1)C[N+]13CC[N+]45CC(=O)[O][68Ga-3]41([O]C(=O)C3)([O]c1ccc(CCC(=O)NCCCCCC(=O)NCCCC[C@H](NC(=O)N[C@@H](CCC(=O)O)C(=O)O)C(=O)O)cc1C5)[O]2)C(=O)O (some centres unmarked) [[^68Ga]1f] , what Biodistribution: Skin is on record?
[reply] 2.44

---

- Experiment Notes: Biodistribution of radiotracers in normal mice
- Type: in vivo, mouse
- Stated Conditions: normal male mice, 60 min
Measured Biodistribution: Pancreas, listed per entry for reference.
Please reply with the bare figure in % dose/g and do not write the unit itself.

O=C(O)CCc1ccc2c(c1)C[N+]13CC[N+]45CC(=O)[O][68Ga-3]14([O]C(=O)C3)([O]2)[O]c1ccc(CCC(=O)NCCCCCC(=O)NCCCC[C@H](NC(=O)N[C@@H](CCC(=O)O)C(=O)O)C(=O)O)cc1C5 (stereo partly shown) [[^68Ga]1a, reference compound] | 0.59

[ask] For the compound O=C(O)CC[C@H](NC(=O)N[C@@H](CCCCNC(=O)CCCCCNC(=O)CCc1ccc2c(c1)C[N+]13CC[N+]45CC(=O)[O][68Ga-3]14([O]C(=O)C3)([O]2)[O]c1ccc(CCC(=O)NCC(=O)O)cc1C5)C(=O)O)C(=O)O (stereo partly shown) [[^68Ga]1c] , what Biodistribution: Pancreas is on record?
[reply] 1.13

[ask] For the compound O=C(O)CC[C@H](NC(=O)N[C@@H](CCCCNC(=O)CCCCCNC(=O)CCc1ccc2c(n1)C[N+]13CC[N+]45CC(=O)[O][68Ga-3]14([O]C(=O)C3)([O]2)[O]c1ccc(CCC(=O)NCCCCCC(=O)NCCCC[C@H](NC(=O)N[C@@H](CCC(=O)O)C(=O)O)C(=O)O)nc1C5)C(=O)O)C(=O)O (stereo partly shown) [[^68Ga]3] , what Biodistribution: Pancreas is on record?
[reply] 1.34

[ask] For the compound O=C(O)CC[C@H](NC(=O)N[C@@H](CCCCNC(=O)CCCCCNC(=O)CCc1ccc2c(c1)C[N+]13CC[N+]45CC(=O)[O][68Ga-3]14([O]C(=O)C3)([O]2)[O]c1ccc(CCC(=O)N[C@@H](CC(=O)O)C(=O)O)cc1C5)C(=O)O)C(=O)O (stereo partly shown) [[^68Ga]1e] , what Biodistribution: Pancreas is on record?
[reply] 0.74

---

- Experiment Notes: Biodistribution of radiotracers in normal mice
- Format: in vivo, mouse
- Stated Conditions: normal male mice, 2 min
Measured Biodistribution: Liver, listed per entry for reference.
Please reply with the bare figure in % dose/g and do not write the unit itself.

[ask] For the compound O=C(O)CCc1ccc2c(c1)C[N+]13CC[N+]45CC(=O)[O][68Ga-3]14([O]C(=O)C3)([O]2)[O]c1ccc(CCC(=O)NCCCCCC(=O)NCCCC[C@H](NC(=O)N[C@@H](CCC(=O)O)C(=O)O)C(=O)O)cc1C5 (some centres unmarked) [[^68Ga]1a, reference compound] , what Biodistribution: Liver is on record?
[reply] 11.0

[ask] For the compound C[C@H](NC(=O)CCc1ccc2c(c1)C[N+]13CC[N+]45CC(=O)[O][68Ga-3]41([O]C(=O)C3)([O]c1ccc(CCC(=O)NCCCCCC(=O)NCCCC[C@H](NC(=O)N[C@@H](CCC(=O)O)C(=O)O)C(=O)O)cc1C5)[O]2)C(=O)O (some centres unmarked) [[^68Ga]1d] , what Biodistribution: Liver is on record?
[reply] 2.36

---

- Experiment Notes: Biodistribution of radiotracers in normal mice
- Format: in vivo, mouse
- Stated Conditions: normal male mice, 120 min
Measurement Type: Biodistribution: Heart (% dose/g)
Please reply with the bare figure in % dose/g and do not write the unit itself.

Here are 4 molecules together with their reported answers.
O=C(O)CC[C@H](NC(=O)N[C@@H](CCCCNC(=O)CCCCCNC(=O)CCc1ccc2c(n1)C[N+]13CC[N+]45CC(=O)[O][68Ga-3]14([O]C(=O)C3)([O]2)[O]c1ccc(CCC(=O)NCCCCCC(=O)NCCCC[C@H](NC(=O)N[C@@H](CCC(=O)O)C(=O)O)C(=O)O)nc1C5)C(=O)O)C(=O)O (some centres unmarked) [[^68Ga]3] | 0.84
O=C(O)CC[C@H](NC(=O)N[C@@H](CCCCNC(=O)CCCCCNC(=O)CCc1ccc2c(c1)C[N+]13CC[N+]45CC(=O)[O][68Ga-3]14([O]C(=O)C3)([O]2)[O]c1ccc(CCC(=O)NCCNC(=O)CN2CCN(CC(=O)O)CCN(CC(=O)O)CCN(CC(=O)O)CC2)cc1C5)C(=O)O)C(=O)O (some centres unmarked) [[^68Ga]1g] | 0.16
O=C(O)CCc1ccc2c(c1)C[N+]13CC[N+]45CC(=O)[O][68Ga-3]14([O]C(=O)C3)([O]2)[O]c1ccc(CCC(=O)NCC(=O)N[C@@H](Cc2ccc(OCC(=O)N[C@@H](Cc3ccccc3)C(=O)NCCCC[C@H](NC(=O)N[C@@H](CCC(=O)O)C(=O)O)C(=O)O)cc2)C(=O)O)cc1C5 (some centres unmarked) [[^68Ga]5b] | 0.22
O=C(O)CCc1ccc2c(n1)C[N+]13CC[N+]45CC(=O)[O][68Ga-3]14([O]C(=O)C3)([O]2)[O]c1ccc(CCC(=O)NCCCCCC(=O)NCCCC[C@H](NC(=O)N[C@@H](CCC(=O)O)C(=O)O)C(=O)O)nc1C5 (some centres unmarked) [[^68Ga]2] | 0.28

Okay, next one:
[ask] For the molecule O=C(O)CCc1ccc2c(c1)C[N+]13CC[N+]45CC(=O)[O][68Ga-3]14([O]C(=O)C3)([O]2)[O]c1ccc(CCC(=O)NCCCCCC(=O)NCCCC[C@H](NC(=O)N[C@@H](CCC(=O)O)C(=O)O)C(=O)O)cc1C5 (some centres unmarked) [[^68Ga]1a, reference compound] , what Biodistribution: Heart is on record?
[reply] 0.23
